Measured viability, T/C of individual entries
# Tested on: HOP-62 complex spheroids with HUVEC/MSC, viability
# Assay remarks: Anticancer human tumor HOP-62 cell line growth inhibition [RAS];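 note: spheroids exposed to agents for seven days before readout; 100% = DMSO vehicle control viability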
# Applied conditions: second compound 0.3 µM; first compound 0.316 µM; stronger effect = lower value
# From the text: RAS pathway inhibitors in Combinations in Complex Spheroids A high-throughput screen of multi-cell type tumor spheroids was designed to identify active combinations of RAS pathway inhibitors and targeted small molecules. Complex spheroids include a stromal component modeled by human endothelial cells (HUVEC) and fibroblasts modeled by human mesenchymal stem cells (MSCs). […] Compounds. […] If the clinical Cmax for an agent had not been determined, the highest concentration tested was 10 microM. […]
Field: numeric (%). Do not append units.

Item CCN1CCN(Cc2ccc(Nc3ncc(F)c(-c4cc(F)c5nc(C)n(C(C)C)c5c4)n3)nc2)CC1 + CCn1c(-c2cccnc2C(C)OC)c2c3cc(ccc31)N1CCOC(CC(NC(=O)C(C(C)C)N(C)C(=O)C3(F)CCN(C(=O)C#CC(C)(C)N(C)C)CC3)C(=O)N3CCCC(N3)C(=O)OCC(C)(C)C2)C1 was tested on HOP-62 complex spheroids with HUVEC/MSC, viability; the reported viability, T/C is 74.3

Item CCC(CC)c1cc(NC2CCC(N)C2)n2nccc2n1 (stereo not drawn) + CCn1c(-c2cc(N3CCN(C)CC3)cnc2C(C)OC)c2c3cc(ccc31)-c1csc(n1)CC(NC(=O)C1CC1C)C(=O)N1CCCC(N1)C(=O)OCC(C)(C)C2 was tested on HOP-62 complex spheroids with HUVEC/MSC, viability; the reported viability, T/C is 47.9

# ---- query molecule ----
Item NC1c2ccccc2OC12CCN(c1cnc3c(N4CCCc5ncccc54)n[nH]c3n1)CC2 (stereo not drawn) + CCn1c(-c2cccnc2C(C)OC)c2c3cc(ccc31)N1CCOC(CC(NC(=O)C(C(C)C)N(C)C(=O)C3(F)CCN(C(=O)C#CC(C)(C)N(C)C)CC3)C(=O)N3CCCC(N3)C(=O)OCC(C)(C)C2)C1 was tested on HOP-62 complex spheroids with HUVEC/MSC, viability; the reported viability, T/C is 18.4

The reported numbers originate from PubChem BioAssay AID2060892.
